biological target: Vascular endothelial growth factor receptor 2 (Homo sapiens, UniProt P35968)
Sequence (P35968 whole entry): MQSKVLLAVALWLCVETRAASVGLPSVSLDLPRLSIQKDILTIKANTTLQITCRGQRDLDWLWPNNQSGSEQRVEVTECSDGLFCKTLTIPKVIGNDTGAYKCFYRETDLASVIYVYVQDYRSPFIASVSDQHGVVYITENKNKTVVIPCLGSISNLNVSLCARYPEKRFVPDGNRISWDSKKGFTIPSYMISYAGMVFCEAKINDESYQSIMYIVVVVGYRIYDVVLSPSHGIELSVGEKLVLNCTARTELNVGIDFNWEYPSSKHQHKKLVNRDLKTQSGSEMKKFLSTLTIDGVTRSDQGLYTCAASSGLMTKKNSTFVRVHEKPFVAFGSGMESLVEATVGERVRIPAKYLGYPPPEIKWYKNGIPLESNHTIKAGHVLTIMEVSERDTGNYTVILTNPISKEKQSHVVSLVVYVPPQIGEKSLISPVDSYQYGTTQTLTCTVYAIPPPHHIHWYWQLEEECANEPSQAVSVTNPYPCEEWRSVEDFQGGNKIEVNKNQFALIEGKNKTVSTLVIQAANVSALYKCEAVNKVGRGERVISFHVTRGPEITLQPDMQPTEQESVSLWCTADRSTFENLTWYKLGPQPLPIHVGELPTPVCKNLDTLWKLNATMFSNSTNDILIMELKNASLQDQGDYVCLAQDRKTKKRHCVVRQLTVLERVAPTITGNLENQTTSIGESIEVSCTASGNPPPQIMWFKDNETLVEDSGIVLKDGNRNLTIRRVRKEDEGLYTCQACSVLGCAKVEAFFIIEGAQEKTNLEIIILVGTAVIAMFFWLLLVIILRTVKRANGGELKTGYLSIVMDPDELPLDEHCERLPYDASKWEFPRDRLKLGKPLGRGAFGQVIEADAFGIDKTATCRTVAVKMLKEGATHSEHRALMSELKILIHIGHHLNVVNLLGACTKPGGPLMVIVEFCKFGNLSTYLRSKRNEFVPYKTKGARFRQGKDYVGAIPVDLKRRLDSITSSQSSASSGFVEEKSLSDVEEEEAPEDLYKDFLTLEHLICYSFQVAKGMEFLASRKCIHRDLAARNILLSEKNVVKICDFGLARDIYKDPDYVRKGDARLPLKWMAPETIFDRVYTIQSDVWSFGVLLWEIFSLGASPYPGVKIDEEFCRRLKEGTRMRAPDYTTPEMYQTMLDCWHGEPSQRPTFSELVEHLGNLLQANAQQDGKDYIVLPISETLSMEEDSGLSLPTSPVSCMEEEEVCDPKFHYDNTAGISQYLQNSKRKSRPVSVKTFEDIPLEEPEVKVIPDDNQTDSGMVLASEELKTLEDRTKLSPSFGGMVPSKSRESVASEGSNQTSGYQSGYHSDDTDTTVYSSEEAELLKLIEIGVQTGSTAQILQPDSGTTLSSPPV
Rule for this label: MET means IC50 is less than 0.03 µM; NOT MET means IC50 is at least 0.03 µM.

| molecular-string | measured-on | label |
| --- | --- | --- |
| Cc1cccc(C(=O)Nc2cnc3ccccc3c2)c1Br | Vascular endothelial growth factor receptor 2 (Homo sapiens, UniProt P35968) | MET |
| O=C(Nc1cccc2cccnc12)c1ccc(Cl)cc1 | Vascular endothelial growth factor receptor 2 (Homo sapiens, UniProt P35968) | NOT MET |
| Cc1cccc(C(=O)Nc2cccc3cccnc23)c1O | Vascular endothelial growth factor receptor 2 (Homo sapiens, UniProt P35968) | MET |
| O=C(Nc1cnc2ccccc2c1)c1cc(Cl)cnc1Br | Vascular endothelial growth factor receptor 2 (Homo sapiens, UniProt P35968) | MET |
| O=C(Nc1cccc2cccnc12)c1ccccc1 | Vascular endothelial growth factor receptor 2 (Homo sapiens, UniProt P35968) | NOT MET |

Here's the next entry for you.
Record Cc1cc(Br)cc(C(=O)Nc2cnc3ccccc3c2)c1 : is its IC50 strictly below 0.03 µM? NOT MET

* * *

system: HUVEC; experiment: Inhibition of VEGF-induced proliferation in HUVEC cells assessed as BrdU incorporation by ELISA; type: functional, cell-based; conditions: Homo sapiens
Rule for this label: Fulfilled means IC50 is less than 60 nM; Not fulfilled means IC50 is at least 60 nM.

Past entries and their recorded results:
| molecular-string | label |
| --- | --- |
| O=C(Nc1cccc2cccnc12)c1cccc([N+](=O)[O-])c1 | Fulfilled |
| Cc1cnc(O)c(C(=O)Nc2cccc3cccnc23)c1 | Fulfilled |
| Cc1cc(Cl)cc(C(=O)Nc2cnc3ccccc3c2)c1 | Not fulfilled |
| Cc1cnc(Cl)c(C(=O)Nc2cnc3ccccc3c2)c1 | Not fulfilled |
| O=C(Nc1cnc2ccccc2c1)c1cc(Cl)c(O)nc1O | Fulfilled |
| O=C(Nc1cccc2cccnc12)c1ccccc1 | Not fulfilled |
| O=C(Nc1cccc2cccnc12)c1cc(Br)cnc1O | Fulfilled |
| O=C(Nc1cccc2cccnc12)c1ccc(Cl)cc1 | Fulfilled |
| O=C(Nc1cnc2ccccc2c1)c1ccccc1 | Not fulfilled |
| O=C(Nc1cccc2cccnc12)c1cc(Cl)ccc1O | Fulfilled |

Record O=C(Nc1cnc2ccccc2c1)c1cccc(Cl)c1O : is its IC50 strictly below 60 nM? Fulfilled

Record Cc1ccc(C(=O)Nc2cccc3cccnc23)c(O)c1 : is its IC50 strictly below 60 nM? Fulfilled

Record O=C(Nc1cnc2ccccc2c1)c1cc(Br)cc(Br)c1O : is its IC50 strictly below 60 nM? Fulfilled

Record O=C(Nc1cccc2cccnc12)c1ccc(Cl)nc1 : is its IC50 strictly below 60 nM? Not fulfilled

Record O=C(Nc1cccc2cccnc12)c1cncc(Br)c1 : is its IC50 strictly below 60 nM? Not fulfilled

Record Cc1cccc(C(=O)Nc2cnc3ccccc3c2)c1O : is its IC50 strictly below 60 nM? Fulfilled

* * *

For Vascular endothelial growth factor receptor 2 (Homo sapiens, UniProt P35968), measured log10(IC50) is reported for the entries below.
Hi team, quick reminder: these entries are log10 of IC50 (nM).

| molecular-string | log10(IC50) |
| --- | --- |
| O=C(Nc1cnc2ccccc2c1)c1cc(Br)cc(Br)c1O | 1.51 |
| O=C(Nc1cccc2cccnc12)c1ccc([N+](=O)[O-])cc1 | 2.05 |
| O=C(Nc1cccc2cccnc12)c1cc(Br)cnc1O | 0.74 |
| O=C(Nc1cccc2cccnc12)c1ccccc1Cl | 1.37 |

Please state, for each entry, its recorded log10(IC50).
1. Cc1cnc(Cl)c(C(=O)Nc2cnc3ccccc3c2)c1
2. Cc1cc(Br)cc(C(=O)Nc2cnc3ccccc3c2)c1O

1. 2.01
2. 1.09
